These measurements were taken from the supplement of paper PMC6555819.

Test system: VDR homodimer (NR concentration 270 nM)
Assay: PBM binding z-score (relative to random genomic background probes); higher = stronger binding; sequences stand for … in GC…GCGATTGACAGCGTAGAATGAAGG
readout: PBM binding z-score

input.sequence | test.system | result
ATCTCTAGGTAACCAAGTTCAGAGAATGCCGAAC | VDR homodimer (NR concentration 270 nM) | 2.7
CGAACTAGGTCAGCCAGGACAGTGAATACATTGA | VDR homodimer (NR concentration 270 nM) | 0.353

Need PBM binding z-score of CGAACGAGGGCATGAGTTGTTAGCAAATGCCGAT , thanks.
1.12

Item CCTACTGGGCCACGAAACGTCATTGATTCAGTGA has what recorded PBM binding z-score?
-1.01

Which measured PBM binding z-score value corresponds to ACTATTAGTCGAGACGAGGGCAACCGATAGGTTG ?
0.358

Consider the sequence shown here: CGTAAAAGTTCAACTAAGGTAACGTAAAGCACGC What is its recorded PBM binding z-score?
3.84

Item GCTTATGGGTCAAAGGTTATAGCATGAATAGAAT has what recorded PBM binding z-score?
1.13

PBM binding z-score lookup needed for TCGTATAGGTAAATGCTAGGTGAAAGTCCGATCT , thanks.
-0.0661

# query: PBM binding z-score of entry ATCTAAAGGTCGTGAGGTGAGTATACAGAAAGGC
1.7

Quick check: PBM binding z-score of ATCCCTAGGTAAAGATAGTTCAGTGAATGCAAAT ?
0.524

Need PBM binding z-score of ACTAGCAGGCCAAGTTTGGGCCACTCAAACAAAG , thanks.
-0.556

Data request, read-out PBM binding z-score, for TATTGTAGATCAGCAGGTTAAGAAAGCTGGCCAA
-0.39

May I ask what PBM binding z-score has been recorded for CCTAGCAGGCCAATCTGGGTCGCTCAAGGCTTGA ?
-0.559

Fill blank: measured PBM binding z-score of the sequence CGTCCAAGGTCAGCAGGTCAGTGTAAGCGACGTG is ____.
2.01

Form field: reported PBM binding z-score of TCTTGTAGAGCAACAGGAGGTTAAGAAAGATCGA
-0.241

Give its PBM binding z-score value. Item: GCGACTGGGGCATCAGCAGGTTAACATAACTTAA
-0.312

Query (sequence): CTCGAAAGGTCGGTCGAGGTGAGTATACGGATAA ; field requested: PBM binding z-score
0.0425

Requested read-out: PBM binding z-score. Entry: TGATATAGGTAATACAGGTGAAAGTCGGCATCTA
0.316
